Target: Carbonic anhydrase 12 (Homo sapiens)
Sequence (O43570 whole entry): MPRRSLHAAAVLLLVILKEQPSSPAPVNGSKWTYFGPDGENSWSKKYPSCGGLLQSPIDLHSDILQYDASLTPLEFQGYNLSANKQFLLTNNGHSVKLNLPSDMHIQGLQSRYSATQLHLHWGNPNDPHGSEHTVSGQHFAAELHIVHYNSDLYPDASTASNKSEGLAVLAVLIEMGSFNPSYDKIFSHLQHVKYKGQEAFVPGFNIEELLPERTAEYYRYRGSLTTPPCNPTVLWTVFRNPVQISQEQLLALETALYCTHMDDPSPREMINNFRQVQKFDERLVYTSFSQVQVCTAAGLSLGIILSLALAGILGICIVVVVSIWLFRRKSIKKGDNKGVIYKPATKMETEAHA
Assay: Inhibition of recombinant human carbonic anhydrase-12 incubated for 15 mins by stopped-flow CO2 hydrase assay
quantity-kind: Ki (nM)

I. NS(=O)(=O)c1ccc(CCNC(=O)Cc2ccccc2Nc2c(Cl)cccc2Cl)cc1
II. CC(C)Cc1ccc(C(C)C(=O)NCCOc2ccc(S(N)(=O)=O)cc2)cc1 (racemic)
// select label with min value of measured Ki from [ I , II ] Answer = label.
II
(II: 7 nM, I: 90.2 nM)

A. COc1ccc2c(c1)c(CC(=O)NCCCCOc1ccc(S(N)(=O)=O)cc1)c(C)n2C(=O)c1ccc(Cl)cc1
B. COc1ccc2cc(C(C)C(=O)NCCc3ccc(S(N)(=O)=O)cc3)ccc2c1 (racemic)
Could you check which of A and B has a smaller value for Ki? Write down the label attached to your selection.
A

I. NS(=O)(=O)c1ccc(NC(=O)Cc2ccccc2Nc2c(Cl)cccc2Cl)cc1
II. COc1ccc2c(c1)c(CC(=O)Nc1ccc(S(N)(=O)=O)cc1)c(C)n2C(=O)c1ccc(Cl)cc1
III. CC(C(=O)Nc1ccc(S(N)(=O)=O)cc1)c1cccc(C(=O)c2ccccc2)c1 (racemic)
Which order do these items take when sorted by rising Ki? List them. Would you mind listing the labels in the order requested?
III, I, II
(III: 2.9 nM, I: 7 nM, II: 40.8 nM)

---

Biological target: UniProt:P00918
Assay: Inhibition of recombinant human carbonic anhydrase-2 incubated for 15 mins by stopped-flow CO2 hydrase assay
pKi: −log10 of the molar value.
quantity-kind: pKi

{"compound": "CC1=C(CC(=O)NCCCOc2ccc(S(N)(=O)=O)cc2)c2cc(F)ccc2/C1=C/c1ccc([S+](C)[O-])cc1 (stereo not drawn)", "quantity-kind": "pKi", "observed-measurement": 8.27}
{"compound": "COc1ccc2cc(C(C)C(=O)Nc3ccc(S(N)(=O)=O)cc3)ccc2c1 (racemic)", "quantity-kind": "pKi", "observed-measurement": 8.38}
{"compound": "NS(=O)(=O)c1ccc(CCNC(=O)Cc2ccccc2Nc2c(Cl)cccc2Cl)cc1", "quantity-kind": "pKi", "observed-measurement": 7.36}

1. CC(C)Cc1ccc(C(C)C(=O)NCCCCOc2ccc(S(N)(=O)=O)cc2)cc1 (racemic)
2. NS(=O)(=O)c1ccc(OCCCCNC(=O)Cc2ccccc2Nc2c(Cl)cccc2Cl)cc1
3. NS(=O)(=O)c1ccc(OCCCNC(=O)Cc2ccccc2Nc2c(Cl)cccc2Cl)cc1
4. CC(C(=O)NCCCCOc1ccc(S(N)(=O)=O)cc1)c1cccc(C(=O)c2ccccc2)c1 (racemic)
5. NS(=O)(=O)c1ccc(NC(=O)C2CCn3c(C(=O)c4ccccc4)ccc32)cc1 (stereo not drawn)
# ascending order, key=pKi Quick reminder: the answer is the labels in the order asked.
1, 2, 3, 4, 5
(1: 6.55, 2: 7.10, 3: 7.34, 4: 8.21, 5: 8.44)

---

Target: Carbonic anhydrase 9 (Homo sapiens, UniProt Q16790)
Assay: Inhibition of recombinant human carbonic anhydrase-9 catalytic domain incubated for 15 mins by stopped-flow CO2 hydrase assay
quantity-kind: Ki (nM)

Reference set, count: 8
{"molecule": "NS(=O)(=O)c1ccc(OCCNC(=O)Cc2ccccc2Nc2c(Cl)cccc2Cl)cc1", "target-or-test-system": "Carbonic anhydrase 9 (Homo sapiens, UniProt Q16790)", "units-symbol": "nM", "Ki": 144}
{"molecule": "CC1=C(CC(=O)NCCCOc2ccc(S(N)(=O)=O)cc2)c2cc(F)ccc2/C1=C/c1ccc([S+](C)[O-])cc1 (stereo not given)", "target-or-test-system": "Carbonic anhydrase 9 (Homo sapiens, UniProt Q16790)", "units-symbol": "nM", "Ki": 141}
{"molecule": "CC(C(=O)NCCOc1ccc(S(N)(=O)=O)cc1)c1ccc(-c2ccccc2)c(F)c1 (racemic)", "target-or-test-system": "Carbonic anhydrase 9 (Homo sapiens, UniProt Q16790)", "units-symbol": "nM", "Ki": 244}
{"molecule": "CC(C(=O)Nc1ccc(S(N)(=O)=O)cc1)c1ccc(-c2ccccc2)c(F)c1 (racemic)", "target-or-test-system": "Carbonic anhydrase 9 (Homo sapiens, UniProt Q16790)", "units-symbol": "nM", "Ki": 9.2}
{"molecule": "COc1ccc2c(c1)c(CC(=O)NCCCCOc1ccc(S(N)(=O)=O)cc1)c(C)n2C(=O)c1ccc(Cl)cc1", "target-or-test-system": "Carbonic anhydrase 9 (Homo sapiens, UniProt Q16790)", "units-symbol": "nM", "Ki": 7.7}
{"molecule": "NS(=O)(=O)c1ccc(NC(=O)C2CCn3c(C(=O)c4ccccc4)ccc32)cc1 (stereo not given)", "target-or-test-system": "Carbonic anhydrase 9 (Homo sapiens, UniProt Q16790)", "units-symbol": "nM", "Ki": 49.1}
{"molecule": "CC(C)Cc1ccc(C(C)C(=O)NCCc2ccc(S(N)(=O)=O)cc2)cc1 (racemic)", "target-or-test-system": "Carbonic anhydrase 9 (Homo sapiens, UniProt Q16790)", "units-symbol": "nM", "Ki": 72.2}
{"molecule": "CC(C(=O)NCCCCOc1ccc(S(N)(=O)=O)cc1)c1cccc(C(=O)c2ccccc2)c1 (racemic)", "target-or-test-system": "Carbonic anhydrase 9 (Homo sapiens, UniProt Q16790)", "units-symbol": "nM", "Ki": 8}

1. NS(=O)(=O)c1ccc(CCNC(=O)C2CCn3c(C(=O)c4ccccc4)ccc32)cc1 (stereo not given)
2. CC(C(=O)NCCCOc1ccc(S(N)(=O)=O)cc1)c1cccc(C(=O)c2ccccc2)c1 (racemic)
Which entry has a larger number for Ki, 1 or 2 ? Refer to your chosen item by its label in the answer.
1

A. CC1=C(CC(=O)NCCc2ccc(S(N)(=O)=O)cc2)c2cc(F)ccc2/C1=C/c1ccc([S+](C)[O-])cc1 (stereo not given)
B. CC(C)Cc1ccc(C(C)C(=O)NCCCCOc2ccc(S(N)(=O)=O)cc2)cc1 (racemic)
Could you point out whether the larger Ki belongs to A or to B ? Reply with the label of the item you choose.
A

Provenance of the data: ChEMBL document CHEMBL4184332
